Test system: Corynebacterium
Test: Antibacterial activity against gut Corynebacterium HM-784 assessed as reduction in bacterial growth measured after 48 hrs by CLSI based broth microdilution method
Type: organism-based
readout: MIC (µg/mL)

1. O=C(Nc1ncco1)c1ccnc(-c2ccc(Cl)c(Cl)c2)c1 = 0.5
2. O=C([O-])c1ccc2oc(NC(=O)c3cc(Oc4cccc(OC(F)(F)F)c4)ccn3)nc2c1.[Na+] = 8
3. O=C(Nc1ncco1)c1cc(-c2ccc(Cl)c(Cl)c2)ccn1 = 16

###

Test system: Staphylococcus aureus
Experiment: Antibacterial activity against […] Staphylococcus aureus ATCC 29213 assessed as reduction in bacterial growth measured after 48 hrs by CLSI based broth microdilution method
Type: functional
Reported values of MIC for individual entries
readout: MIC (µg/mL)

1) O=C(Nc1ncco1)c1cc(-c2ccc(F)c(Cl)c2)ccn1 = 128
2) O=C(Nc1ncco1)c1cc(-c2cccc(C(F)(F)F)c2)ccn1 = 64
3) O=C(Nc1ncco1)c1cc(Oc2cccc(OC(F)(F)F)c2)ccn1 = 64
4) O=C(Nc1ncco1)c1cc(Oc2ccc(F)c(F)c2)ccn1 = 64
5) COC(=O)c1ccc2oc(NC(=O)c3cc(Oc4ccc(F)c(F)c4)ccn3)nc2c1 = 64
6) O=C(O)c1ccc2oc(NC(=O)c3cc(-c4ccc(OC(F)(F)F)cc4)ccn3)nc2c1 = 8
7) O=C(Nc1ncco1)c1cc(-c2ccc(C(F)(F)F)cc2)ccn1 = 128
8) O=C(O)c1ccc2oc(NC(=O)c3cc(Oc4ccc(F)c(F)c4)ccn3)nc2c1 = 64

###

Reported values of MIC for individual entries
System: Bifidobacterium longum
Test: Antibacterial activity against gut Bifidobacterium longum HM-846 assessed as reduction in bacterial growth measured after 48 hrs by CLSI based broth microdilution method
Format: organism-based
readout: MIC

1. O=C([O-])c1ccc2oc(NC(=O)c3cc(Oc4cccc(OC(F)(F)F)c4)ccn3)nc2c1.[Na+] = 16 µg/mL
2. O=C(Nc1ncco1)c1cc(-c2ccc(Cl)c(Cl)c2)ccn1 = > 16 µg/mL
3. O=C(Nc1ncco1)c1ccnc(-c2ccc(Cl)c(Cl)c2)c1 = > 16 µg/mL

###

Test: Antibacterial activity against gut Limosilactobacillus-reuteri HM-102 assessed as reduction in bacterial growth measured after 48 hrs by CLSI based broth microdilution method
readout: MIC (µg/mL)

1) O=C([O-])c1ccc2oc(NC(=O)c3cc(Oc4cccc(OC(F)(F)F)c4)ccn3)nc2c1.[Na+] = 4
2) O=C(Nc1ncco1)c1ccnc(-c2ccc(Cl)c(Cl)c2)c1 = 8
3) O=C(Nc1ncco1)c1cc(Oc2cccc(OC(F)(F)F)c2)ccn1 = 4
4) O=C(Nc1ncco1)c1cc(-c2ccc(Cl)c(Cl)c2)ccn1 = 4

###

Reported values of MIC for individual entries
Test system: Eubacterium sp.
Assay: Antibacterial activity against gut Eubacterium sp. HM-178 assessed as reduction in bacterial growth measured after 48 hrs by CLSI based broth microdilution method
Type: organism-based
readout: MIC (µg/mL)

1. O=C(Nc1ncco1)c1cc(-c2ccc(Cl)c(Cl)c2)ccn1 = 8
2. Cc1ncc([N+](=O)[O-])n1CCO = 1
3. CCc1c(Cl)c(O)c(Cl)c(O)c1C(=O)O[C@H]1[C@H](O)[C@H](OC)[C@H](OC/C2=C\C=C\C[C@H](O)/C(C)=C/[C@H](CC)[C@@H](O[C@@H]3OC(C)(C)[C@@H](OC(=O)C(C)C)[C@H](O)[C@@H]3O)/C(C)=C/C(C)=C/C[C@@H]([C@@H](C)O)OC2=O)O[C@@H]1C = 16
4. O=C([O-])c1ccc2oc(NC(=O)c3cc(Oc4cccc(OC(F)(F)F)c4)ccn3)nc2c1.[Na+] = 16
5. CN[C@H](CC(C)C)C(=O)N[C@H]1C(=O)N[C@@H](CC(N)=O)C(=O)N[C@H]2C(=O)N[C@H]3C(=O)N[C@H](C(=O)N[C@H](C(=O)O)c4cc(O)cc(O)c4-c4cc3ccc4O)[C@H](O)c3ccc(c(Cl)c3)Oc3cc2cc(c3O[C@@H]2O[C@H](CO)[C@@H](O)[C@H](O)[C@H]2O[C@H]2C[C@](C)(N)[C@H](O)[C@H](C)O2)Oc2ccc(cc2Cl)[C@H]1O = 2
6. O=C(Nc1ncco1)c1cc(Oc2cccc(OC(F)(F)F)c2)ccn1 = 8
